Test system: SF-268
Assay: NCI tumour cell line growth inhibition, 48 h
The source made the active and inactive calls. Cut-off read from the data, not from the text of the source: active = GI50 up to about 1.1 µM and inactive = higher.
Hi! Could you answer with just one of these? true = active, false = inactive

Cc1cccc2nc3cccc(C(=O)NCCC[N+](C)(CCCNC(=O)c4cccc5nc6cccc(C)c6nc45)Cc4c([N+](=O)[O-])ncn4C)c3nc12 :: false

Query :: Status in this test for `COc1ccc(/C=C2\N=C(SC)N(C)C2=O)cc1` ?
Result :: false

Query :: Status in this test for COc1ccc2c(c1)O[C@@H]1C(O)Oc3cc(OC)c(OC)cc3[C@]1(O)C2=O (some centres undefined) ?
Result :: false

Query :: Status in this test for `CN(C)c1ccc(C(=NNC(=O)c2cc3ccccc3[nH]2)c2ccc(N(C)C)cc2)cc1` ?
Result :: true

Query :: Status in this test for `OCCN(C1=NCCN1)/[N+](=C/c1ccc(Cl)cc1)[CH-]c1ccc(Cl)cc1` ?
Result :: false

Query :: Status in this test for `CN(C)CCNc1ccc2c(=O)n(CCN(C)C)c(=O)n3c4ccc(O)cc4c(=O)c1c23` ?
Result :: true

Query :: Status in this test for `Clc1cc2c(c(CSC3=NCN(CC4CC4)CN3)c1)OCOC2` ?
Result :: false

Query :: Status in this test for CC[C@]12CCCN3CCc4c(n(c5ccccc45)C(=O)C1)[C@@H]32 [VINBURNINE] ?
Result :: false

Query :: Status in this test for `Cc1c2cnccc2nc2[nH]c3ccncc3c12` ?
Result :: false

Origin of measurements: ChEMBL document CHEMBL1201862
